assayed_system: His-Nsp9 (SARS-CoV-2, UniProt P0DTD1 4141-4253)
test_method_notes: fluorescence polarization; 100 nM RNA; FP: 20 mM HEPES pH 7.0, 150 mM NaCl, 2 mM MgCl2, 10 mM DTT, 1 U/ul RiboLock, 5 min at room temperature; NMR: 20 mM HEPES pH 7.0, 15 mM NaCl, 0.5 mM TCEP, 0.02%
run_conditions: protein: recombinant; tags: His; chain copies: 2; label: 3' Cy3

binder	Kd
CAGUGCAAUGAUGAAAGGGCAU (ssRNA, 5' phosphate) [miR-130b-Cy3]	~63 nM
UGAGGUAGUAGGUUGUGUGGUU (ssRNA, 5' phosphate) [let-7b-Cy3]	~15 nM
